# assay_target: recombinant OfurPBP2 (Ostrinia furnacalis, UniProt E7CCA0)
# Sequence (E7CCA0 entry or part of it): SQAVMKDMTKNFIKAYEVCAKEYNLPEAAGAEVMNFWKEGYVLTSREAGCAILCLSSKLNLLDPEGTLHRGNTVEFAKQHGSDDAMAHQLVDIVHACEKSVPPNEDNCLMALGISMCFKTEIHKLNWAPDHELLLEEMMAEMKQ
# assay_overview: Competitive fluorescence binding assay with 1-NPN probe, OfurPBP2
# assay_conditions: pH 7.4, displacement of 1-NPN, mean ± SE, dash = undetectable interaction
As shown below, each of these compounds has a reported IC50 value.

- compound: "CCCC/C=C\\CCCCCCCCO [Z9-14:OH, (Z)-9-Tetradecenol]"
  relation_operator: ">"
  IC50 / µM: 6
- compound: "C/C=C/CCCCCCCCCCCOC(C)=O [E12-14:OAc, (E)-12-Tetradecenyl acetate]"
  relation_operator: "="
  IC50 / µM: 4.88
- compound: "CC/C=C/CCCCCCCCCCOC(C)=O [E11-14:OAc, (E)-11-Tetradecenyl acetate]"
  relation_operator: "="
  IC50 / µM: 3.28
- compound: "CC/C=C\\CCCCCCCCCCOC(C)=O [Z11-14:OAc, (Z)-11-Tetradecenyl acetate]"
  relation_operator: "="
  IC50 / µM: 3.49
- compound: "C/C=C\\CCCCCCCCCCCOC(C)=O [Z12-14:OAc, (Z)-12-Tetradecenyl acetate]"
  relation_operator: "="
  IC50 / µM: 4.96
- compound: "CC/C=C/CCCCCCCCCCO [E11-14:OH, (E)-11-Tetradecenol]"
  relation_operator: ">"
  IC50 / µM: 6

---

# assay_target: recombinant OfurPBP3 (Ostrinia furnacalis, UniProt E7CCA1)
# Sequence (E7CCA1 entry or part of it): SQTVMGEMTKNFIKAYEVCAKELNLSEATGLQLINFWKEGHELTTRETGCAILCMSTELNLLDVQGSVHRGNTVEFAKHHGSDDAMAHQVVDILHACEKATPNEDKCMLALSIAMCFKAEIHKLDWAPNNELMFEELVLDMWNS
# assay_overview: Competitive fluorescence binding assay with 1-NPN probe, OfurPBP3 wild type
# assay_conditions: OfurPBP3 wild type; pH 7.4; displacement of 1-NPN; mean ± SE; dash = undetectable interaction
pIC50: −log10 of the molar value.

- compound: "C/C=C\\CCCCCCCCCCCOC(C)=O [Z12-14:OAc, (Z)-12-Tetradecenyl acetate]"
  assay_target: "recombinant OfurPBP3 (Ostrinia furnacalis, UniProt E7CCA1)"
  relation_operator: "="
  pIC50: 5.42
- compound: "CC/C=C/CCCCCCCCCCOC(C)=O [E11-14:OAc, (E)-11-Tetradecenyl acetate]"
  assay_target: "recombinant OfurPBP3 (Ostrinia furnacalis, UniProt E7CCA1)"
  relation_operator: "="
  pIC50: 5.58
- compound: "CC/C=C/CCCCCCCCCCO [E11-14:OH, (E)-11-Tetradecenol]"
  assay_target: "recombinant OfurPBP3 (Ostrinia furnacalis, UniProt E7CCA1)"
  relation_operator: "<"
  pIC50: 5.22
- compound: "CCCC/C=C\\CCCCCCCCO [Z9-14:OH, (Z)-9-Tetradecenol]"
  assay_target: "recombinant OfurPBP3 (Ostrinia furnacalis, UniProt E7CCA1)"
  relation_operator: "<"
  pIC50: 5.22
- compound: "C/C=C/CCCCCCCCCCCOC(C)=O [E12-14:OAc, (E)-12-Tetradecenyl acetate]"
  assay_target: "recombinant OfurPBP3 (Ostrinia furnacalis, UniProt E7CCA1)"
  relation_operator: "="
  pIC50: 5.42
- compound: "CC/C=C\\CCCCCCCCCCOC(C)=O [Z11-14:OAc, (Z)-11-Tetradecenyl acetate]"
  assay_target: "recombinant OfurPBP3 (Ostrinia furnacalis, UniProt E7CCA1)"
  relation_operator: "="
  pIC50: 5.49

---

# assay_target: recombinant OfurPBP1 (Ostrinia furnacalis, UniProt E7CC99)
# Sequence (E7CC99 entry or part of it): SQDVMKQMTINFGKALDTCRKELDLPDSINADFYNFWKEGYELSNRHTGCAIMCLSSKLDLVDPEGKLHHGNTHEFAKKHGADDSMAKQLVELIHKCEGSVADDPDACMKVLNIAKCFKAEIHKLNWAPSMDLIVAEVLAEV
# assay_overview: Competitive fluorescence binding assay with 1-NPN probe, OfurPBP1
# assay_conditions: pH 7.4, displacement of 1-NPN, mean ± SE, dash = undetectable interaction
As shown below, each of these molecules has a reported IC50 value.
assay_metric: IC50 (µM)

- molecule: "C/C=C\\CCCCCCCCCCCOC(C)=O [Z12-14:OAc, (Z)-12-Tetradecenyl acetate]"
  relation_operator: "="
  quantitative_result: 4.88
- molecule: "CC/C=C/CCCCCCCCCCO [E11-14:OH, (E)-11-Tetradecenol]"
  relation_operator: ">"
  quantitative_result: 6
- molecule: "CCCC/C=C\\CCCCCCCCO [Z9-14:OH, (Z)-9-Tetradecenol]"
  relation_operator: ">"
  quantitative_result: 6
- molecule: "CC/C=C/CCCCCCCCCCOC(C)=O [E11-14:OAc, (E)-11-Tetradecenyl acetate]"
  relation_operator: "="
  quantitative_result: 5.3
- molecule: "C/C=C/CCCCCCCCCCCOC(C)=O [E12-14:OAc, (E)-12-Tetradecenyl acetate]"
  relation_operator: "="
  quantitative_result: 5.77
- molecule: "CC/C=C\\CCCCCCCCCCOC(C)=O [Z11-14:OAc, (Z)-11-Tetradecenyl acetate]"
  relation_operator: "="
  quantitative_result: 4.69

---

# assay_target: recombinant OfurPBP4 (Ostrinia furnacalis, UniProt E7CCA2)
# Sequence (E7CCA2 entry or part of it): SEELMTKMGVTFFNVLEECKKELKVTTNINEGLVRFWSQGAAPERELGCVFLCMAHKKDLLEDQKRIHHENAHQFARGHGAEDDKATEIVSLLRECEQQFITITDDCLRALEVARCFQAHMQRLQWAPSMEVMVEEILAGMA
# assay_overview: Competitive fluorescence binding assay with 1-NPN probe, OfurPBP4
# assay_conditions: OfurPBP4; pH 7.4; mean ± SE; dash = undetectable interaction
# Experimental: The 1-NPN probe was excited at 337 nm, and emission spectra were recorded between 380 and 450 nm on a Shimadzu fluorescence spectrophotometer (Shimadzu, Japan). […] Excitation and emission spectra were recorded from triplicate assays as described above. The binding affinity of each purified OfurPBP to the different sex pheromones was measured by calculation of binding constants via competitive fluorescence-binding assay. […]

- compound: "CCCC/C=C\\CCCCCCCCO [Z9-14:OH, (Z)-9-Tetradecenol]"
  assay_target: "recombinant OfurPBP4 (Ostrinia furnacalis, UniProt E7CCA2)"
  u: "nM"
  relation_operator: ">"
  Ki: 6000
- compound: "CC/C=C/CCCCCCCCCCO [E11-14:OH, (E)-11-Tetradecenol]"
  assay_target: "recombinant OfurPBP4 (Ostrinia furnacalis, UniProt E7CCA2)"
  u: "nM"
  relation_operator: ">"
  Ki: 6000
- compound: "CC/C=C\\CCCCCCCCCCOC(C)=O [Z11-14:OAc, (Z)-11-Tetradecenyl acetate]"
  assay_target: "recombinant OfurPBP4 (Ostrinia furnacalis, UniProt E7CCA2)"
  u: "nM"
  relation_operator: "="
  Ki: 1090
- compound: "CC/C=C/CCCCCCCCCCOC(C)=O [E11-14:OAc, (E)-11-Tetradecenyl acetate]"
  assay_target: "recombinant OfurPBP4 (Ostrinia furnacalis, UniProt E7CCA2)"
  u: "nM"
  relation_operator: "="
  Ki: 2130
- compound: "C/C=C/CCCCCCCCCCCOC(C)=O [E12-14:OAc, (E)-12-Tetradecenyl acetate]"
  assay_target: "recombinant OfurPBP4 (Ostrinia furnacalis, UniProt E7CCA2)"
  u: "nM"
  relation_operator: ">"
  Ki: 6000

---

As shown below, each of these molecules has a reported Ki value.
# assay_target: recombinant OfurPBP2 (Ostrinia furnacalis, UniProt E7CCA0)
# assay_overview: Competitive fluorescence binding assay with 1-NPN probe, OfurPBP2
# assay_conditions: pH 7.4, mean ± SE, dash = undetectable interaction

- molecule: "C/C=C\\CCCCCCCCCCCOC(C)=O [Z12-14:OAc, (Z)-12-Tetradecenyl acetate]"
  Ki: "4.19 µM"
- molecule: "C/C=C/CCCCCCCCCCCOC(C)=O [E12-14:OAc, (E)-12-Tetradecenyl acetate]"
  Ki: "4.12 µM"
- molecule: "CCCC/C=C\\CCCCCCCCO [Z9-14:OH, (Z)-9-Tetradecenol]"
  Ki: "> 6 µM"
- molecule: "CC/C=C\\CCCCCCCCCCOC(C)=O [Z11-14:OAc, (Z)-11-Tetradecenyl acetate]"
  Ki: "2.95 µM"
- molecule: "CC/C=C/CCCCCCCCCCOC(C)=O [E11-14:OAc, (E)-11-Tetradecenyl acetate]"
  Ki: "2.77 µM"

---

# assay_target: recombinant OfurPBP5 (Ostrinia furnacalis, UniProt E7CCA3)
# Sequence (E7CCA3 entry or part of it): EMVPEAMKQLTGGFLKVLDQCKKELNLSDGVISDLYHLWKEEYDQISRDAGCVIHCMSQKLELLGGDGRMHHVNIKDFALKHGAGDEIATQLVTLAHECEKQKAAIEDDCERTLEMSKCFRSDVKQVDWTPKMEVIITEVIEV
# assay_overview: Competitive fluorescence binding assay with 1-NPN probe, OfurPBP5
# assay_conditions: OfurPBP5; pH 7.4; mean ± SE; dash = undetectable interaction
assay_metric: Ki

- molecule: "CCCC/C=C\\CCCCCCCCO [Z9-14:OH, (Z)-9-Tetradecenol]"
  assay_target: "recombinant OfurPBP5 (Ostrinia furnacalis, UniProt E7CCA3)"
  assay_metric: "Ki"
  result: "> 6000 nM"
- molecule: "CC/C=C\\CCCCCCCCCCOC(C)=O [Z11-14:OAc, (Z)-11-Tetradecenyl acetate]"
  assay_target: "recombinant OfurPBP5 (Ostrinia furnacalis, UniProt E7CCA3)"
  assay_metric: "Ki"
  result: "2180 nM"
- molecule: "CC/C=C/CCCCCCCCCCOC(C)=O [E11-14:OAc, (E)-11-Tetradecenyl acetate]"
  assay_target: "recombinant OfurPBP5 (Ostrinia furnacalis, UniProt E7CCA3)"
  assay_metric: "Ki"
  result: "1140 nM"
- molecule: "CC/C=C/CCCCCCCCCCO [E11-14:OH, (E)-11-Tetradecenol]"
  assay_target: "recombinant OfurPBP5 (Ostrinia furnacalis, UniProt E7CCA3)"
  assay_metric: "Ki"
  result: "> 6000 nM"

---

As shown below, each of these compounds has a reported pIC50 value.
# assay_target: OfurPBP3 mutant M1: I113N (Ostrinia furnacalis, UniProt E7CCA1, I135N)
# Sequence (E7CCA1 entry or part of it I135N): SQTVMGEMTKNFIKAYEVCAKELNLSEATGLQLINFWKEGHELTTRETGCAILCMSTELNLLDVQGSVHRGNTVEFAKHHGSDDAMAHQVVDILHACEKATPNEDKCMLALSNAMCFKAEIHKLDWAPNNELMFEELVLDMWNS
# assay_overview: Competitive binding assay, OfurPBP3 mutant M1 I113N
pIC50: −log10 of the molar value.

- compound: "C/C=C\\CCCCCCCCCCCOC(C)=O [Z12-14:OAc, (Z)-12-Tetradecenyl acetate]"
  pIC50: "< 5.22"
- compound: "CCCC/C=C\\CCCCCCCCO [Z9-14:OH, (Z)-9-Tetradecenol]"
  pIC50: "< 5.22"
- compound: "CC/C=C/CCCCCCCCCCO [E11-14:OH, (E)-11-Tetradecenol]"
  pIC50: "< 5.22"
- compound: "CC/C=C\\CCCCCCCCCCOC(C)=O [Z11-14:OAc, (Z)-11-Tetradecenyl acetate]"
  pIC50: "< 5.22"
- compound: "C/C=C/CCCCCCCCCCCOC(C)=O [E12-14:OAc, (E)-12-Tetradecenyl acetate]"
  pIC50: "< 5.22"
- compound: "CC/C=C/CCCCCCCCCCOC(C)=O [E11-14:OAc, (E)-11-Tetradecenyl acetate]"
  pIC50: "< 5.22"
